// provenance: ChEMBL document CHEMBL1201862

What GI50 was measured for each of the following?
- Test system: SW-620
- assay-overview: NCI tumour cell line growth inhibition, 48 h
The source made the active and inactive calls. Cut-off read from the data, not from the text of the source: active = GI50 up to about 1.1 µM and inactive = higher.

**Q:** I'd like to know its GI50. The compound in question is CN1C=C(C(N)=O)C2CC(O)[C@@](NC(=O)CS(N)(=O)=O)(C(=O)O)C2C1 (stereo partly drawn)
**A:** 3.87 µM (inactive)

**Q:** Could you do the same for C[C@H]1[C@H](C)N1CC(O)Cn1ccnc1[N+](=O)[O-] (stereo partly drawn) , please?
**A:** > 100 µM (inactive)

**Q:** Ok, now Clc1ccc(-c2nn3c(CCCCCCCCc4nnc5sc(-c6ccc(Cl)cc6)nn45)nnc3s2)cc1
**A:** 29.2 µM (inactive)

----------
- Tested on: HOP-18
- assay-overview: NCI tumour cell line growth inhibition, 48 h
Activity calls are given as the source filed them. Cut-off read from the data, not from the text of the source: active = GI50 up to about 1.1 µM and inactive = higher.
reported-endpoint: GI50

**Q:** // fetch HOP-18 GI50 for O=C(Nc1ccn(CCO)c(=O)n1)c1ccccc1
**A:** > 100 µM (inactive)

**Q:** Consider next the compound Cc1ccc(-c2nc3ccccc3c(=O)n2NC2OC(CO)C(O)C(O)C2O)cc1 (stereo not given) in the same way.
**A:** > 100 µM (inactive)

**Q:** Also, COC(=O)c1ccccc1NC(=O)C(=O)Cc1nc2c3c(ccc2nc1O)C(=O)c1ccccc1C3=O please.
**A:** > 100 µM (inactive)

**Q:** Also check CC12CCC3=C(CSC4=C3CSc3ccccc34)C1=CCCC2=O (stereo not given)
**A:** 39.3 µM (inactive)

**Q:** One more compound: CC(=O)NC(C=O)C(O[C@H](C)C(=O)NC(C)C(=O)NC(CCC(N)=O)C(=O)OCc1ccccc1)C(O)C(O)COC(=O)CCNc1c2ccccc2nc2cccc([N+](=O)[O-])c12 (stereo not given in full)
**A:** 4.3 µM (inactive)

**Q:** And for O=C1CC(c2ccc(Cl)cc2)=Nc2ccccc2N1 ?
**A:** 40.9 µM (inactive)

**Q:** Then what about the compound CN(C)C[C@H]1CC[C@@H](CN(C)C)C1=O ?
**A:** 8.02 µM (inactive)

**Q:** Here is the next compound: NC(=S)N/N=C1\CCCC\C1=C/c1ccccc1
**A:** 38.2 µM (inactive)

**Q:** Similarly, N#Cc1ccc(OCCSCCCCCCCCCCSCCOc2ccc(C#N)cc2)cc1 ?
**A:** > 100 µM (inactive)

**Q:** Let us now turn to O=C(Nc1ccc(Cl)c(Cl)c1)C1C(=O)N(c2ccc(Cl)c(Cl)c2)C(=O)/C1=N\O (stereo not given)
**A:** > 100 µM (inactive)

----------
Answer each item with its documented GI50.
- Test system: Hs-578T
- assay-overview: NCI tumour cell line growth inhibition, 48 h
Calls of active or inactive are those of the source. No stated cut-off is given here; in the data, active = GI50 up to about 1.1 µM and inactive = higher.

**Q:** # value lookup — system Hs-578T, readout GI50, item C=CC(=C)CCC(Br)C(C)(C)Cl (stereo unspecified)
**A:** > 100 µM (inactive)

**Q:** Please give the result for C=C(Cl)c1c(OC)cccc1OCc1ccccc1 too.
**A:** > 100 µM (inactive)

**Q:** Same read-out for Cc1ncn(-c2ccccc2O)c1C ?
**A:** > 100 µM (inactive)

**Q:** Same lookup for O=C(CCN1CCCCC1)Nc1ccc2sc3ccccc3c(=O)c2n1 , please.
**A:** 19.9 µM (inactive)

**Q:** // same read-out, input: COc1cccc(/C=C\c2ccnc3ccccc23)c1
**A:** > 10 µM (inactive)

**Q:** Please do the same for Cc1cc(O)nc(NN2C(Cl)C(=O)C2c2ccccc2O)n1 (stereo unspecified) as well.
**A:** 26.8 µM (inactive)

**Q:** Same question, Nc1ccc(Oc2ccc(C34CC5CC(C3)CC(c3ccc(Oc6ccc(N)c(O)c6)cc3)(C5)C4)cc2)cc1O this time
**A:** 2.02 µM (inactive)

**Q:** Try COc1cc2c(c(O)c1OC)C(=O)[C@@H]1CCC(=O)N1C2c1ccccc1 (stereo partly specified) next.
**A:** 40.5 µM (inactive)

**Q:** Same read-out for COc1ccc(-c2cc(-c3ccncc3)nc(N)c2-c2ccc(F)cc2)cc1 ?
**A:** > 100 µM (inactive)

**Q:** Subsequent entry: O=C(NC1CCN(Cc2ccccc2)CC1)c1ccccc1I
**A:** 17.9 µM (inactive)

**Q:** Queued: NCCP(=O)(O)O
**A:** > 100 µM (inactive)

**Q:** Same read-out for NC(=O)ON=C1CCN(Cc2ccccc2)CC1 ?
**A:** > 100 µM (inactive)

**Q:** Same lookup for Nc1nc(O)nc2c1ncn2C1OC(CO)C(O)C1O (stereo unspecified) , please.
**A:** > 100 µM (inactive)

**Q:** Same lookup for Sc1ncnc2nc[nH]c12 [MERCAPTOPURINE ANHYDROUS] , please.
**A:** 14.2 µM (inactive)

**Q:** What do we get for CC(C)OC1OC(CO)C(O)CC1n1cc(F)c(=O)[nH]c1=O (stereo unspecified) ?
**A:** 86.3 µM (inactive)

**Q:** Next molecule: CCOC(=O)c1cc(-c2cc(OC)c(OC)c([N+](=O)[O-])c2)c([N+](=O)[O-])n1C
**A:** 4.21 µM (inactive)

----------
- System: SK-MEL-5
- assay-overview: NCI tumour cell line growth inhibition, 48 h
Activity calls are given as the source filed them. Rule as the data show it: active = GI50 up to about 1.1 µM and inactive = higher.
reported-endpoint: GI50

**Q:** Look up GI50 for this molecule: O=C(CCC(=O)C1Cc2ccccc2C1=O)Nc1cccc(C(F)(F)F)c1 (centres undefined)
**A:** > 100 µM (inactive)

**Q:** How about CC1=C(SCc2ccccc2)C(=O)c2ccccc2C1=O ?
**A:** 14.4 µM (inactive)

**Q:** Lookup Nc1nc(Cl)c(N)c(NCC2(CO)CCC2)n1
**A:** 75.9 µM (inactive)

**Q:** Input COc1cc2c(oc(=O)c3cc4ccoc4c(OC)c32)c2cccc(O)c12
**A:** > 100 µM (inactive)

----------
Here we list compounds with their recorded GI50 when tested on HCT-15.
All answers are understood in µM, so give the number only.

**Q:** // GI50 lookup, key: CCC(=O)Nc1ccc(NC(C#N)c2cccc(Oc3ccccc3)c2)cc1 (stereo unspecified)
**A:** 45

**Q:** CCOC(=O)c1nnsc1NC(=O)Nc1ccc(Cl)cc1 ?
**A:** 61.9

**Q:** Record: O=C(CN(c1ccccc1)c1ccccc1)N1c2ccccc2C2C=CC=CC21 (stereo unspecified)
**A:** 16.7

**Q:** Also check C=CCC(NCc1ccccc1)[C@H](OCc1ccccc1)[C@@H]1COC(C)(C)O1 (stereo partly specified)
**A:** 23.7

----------
- Tested on: SF-539
- assay-overview: NCI tumour cell line growth inhibition, 48 h
The source made the active and inactive calls. No stated cut-off is given here; in the data, active = GI50 up to about 1.1 µM and inactive = higher.
Choose the fitting class; nothing outside 1 (yes) (active), 0 (no) (inactive) is accepted.

**Q:** Look up the recorded call for COC(=O)/C=C1\C(=O)C=C2[C@@H]3C[C@H]4C[C@H](CC[C@@]4(C)N21)C3(C)NC(C)=O (stereo partly drawn) in this test.
**A:** 0 (no)

**Q:** Next compound up: Cc1cc(-c2c(Br)cc(C(=O)O)n2C)on1
**A:** 0 (no)

**Q:** // query: C[C@@H]1C[C@@H](O)[C@@]2(O)C13CC(=O)OC(C3)[C@@H](C)[C@@]2(C)CO (stereo partly drawn)
**A:** 0 (no)

**Q:** Repeat for the following compound: O=[N+]([O-])c1ccc(/C=N\N=c2/ccc([N+](=O)[O-])c[nH]2)cc1
**A:** 0 (no)

**Q:** Also CN1CSC(=S)N(c2cccc(C(F)(F)F)c2)C1 , if possible.
**A:** 0 (no)

**Q:** Item: S=C(Nc1ccc(Cl)cc1)SC1CCCCC1
**A:** 0 (no)

**Q:** Next up: CN1CCN(c2nc3ccccc3nc2C(=O)c2ccc(Cl)cc2)CC1
**A:** 0 (no)

**Q:** Can you handle CC1(C)OCC(C2OC(N3O[C@H](CI)C[C@@H]3c3ccccc3)C3OC(C)(C)OC23)O1 (stereo partly drawn) next?
**A:** 0 (no)

**Q:** And then CCOC(=O)[C@@]12C[C@](/C=C/OC)(O[Si](C)(C)C)[C@@]13c1cc(OC)c(OC)cc1CCN3C(=O)C2O (stereo partly drawn) , what is it?
**A:** 0 (no)

**Q:** C=C1C(=O)O[C@H]2[C@H]3O[C@@H](C[C@@H]12)[C@@]1(C)CC[C@H](O1)C(C)=CCC[C@H]3C , same question.
**A:** 0 (no)

**Q:** One more compound: CC(=O)NCc1nc(C#N)c(N)o1
**A:** 0 (no)

**Q:** Cool, now CC(/C(=N\Nc1ccccc1)c1ccc(O)cc1)C1C(=O)Oc2ccccc21 (stereo not drawn)
**A:** 0 (no)

**Q:** Please answer likewise for COc1ccc(-c2nc3ccc(C)cc3o2)c(OC)c1
**A:** 0 (no)

**Q:** How about Cc1cc(O)nc(NN2C(Cl)C(=O)C2c2ccccc2O)n1 (stereo not drawn) ?
**A:** 0 (no)

**Q:** Field entry: N#Cc1ccc(OCCSCCCCCCCCCCSCCOc2ccc(C#N)cc2)cc1
**A:** 0 (no)

**Q:** Same question, O=C(CN(c1ccccc1)c1ccccc1)N1c2ccccc2C2C=CC=CC21 (stereo not drawn) this time
**A:** 0 (no)

**Q:** What do you get for N=C(N)NS(=O)(=O)c1ccc(Nc2c3ccccc3nc3c(C(=O)NNCCO)cccc23)cc1 ?
**A:** 1 (yes)

**Q:** Same for CN(C)c1ccc(/C=C/C=C\c2cc(/C=C/C=C/c3ccc(N(C)C)cc3)[s+]c3ccccc23)cc1.[O-][Cl+3]([O-])([O-])[O-]
**A:** 0 (no)

**Q:** Queued: COc1ccc(OC)c(NC2=NCCO2)c1
**A:** 0 (no)

**Q:** Now try Cn1nc2c(c1N)Cc1c(nn(C)c1N)-c1ccccc1-2 .
**A:** 0 (no)

**Q:** Now this one: N#CC(C#N)=c1[nH]c2cccc3c2-c2c(cccc2c3=C(C#N)C#N)[nH]1
**A:** 0 (no)

**Q:** Can you handle Nc1sc2c(c1C(=O)c1ccc(Cl)c(Cl)c1)CCCC2 next?
**A:** 0 (no)

**Q:** Queued: Nc1ncnc2c1cnn2Cc1cn(COCC(O)CO)nn1 (stereo not drawn)
**A:** 0 (no)
